study_system: MSI1 full-length (mouse, UniProt Q61474 1-362)
Sequence (Q61474 whole entry): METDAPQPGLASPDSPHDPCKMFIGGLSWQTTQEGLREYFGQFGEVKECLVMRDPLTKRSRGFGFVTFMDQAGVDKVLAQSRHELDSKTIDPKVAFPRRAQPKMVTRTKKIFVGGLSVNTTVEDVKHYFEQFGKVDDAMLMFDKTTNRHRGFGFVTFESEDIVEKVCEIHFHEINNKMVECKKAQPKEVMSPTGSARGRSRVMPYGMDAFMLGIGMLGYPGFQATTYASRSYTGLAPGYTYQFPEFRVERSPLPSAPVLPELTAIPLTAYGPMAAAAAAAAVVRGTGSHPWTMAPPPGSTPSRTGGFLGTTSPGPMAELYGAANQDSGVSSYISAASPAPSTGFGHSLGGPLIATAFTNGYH
protocol_details: nsRBNS (natural sequence RNA bind-n-seq); RBNS binding buffer (assumed for nsRBNS): 25 mM Tris pH 7.5, 150 mM KCl, 3 mM MgCl2, 0.01% Triton X-100, 500 ug/ml BSA, 20 U/ml SUPERase-In, 4 C; UNK is unkempt and MSI1 is Musashi-1; names of the RNAs are library labels; protein concentration not given here; high values mean tight binding
In all, about 5,800 sequences were measured (“enrichment r”: median about 0.54, highest 2% from about 16 on). The entries come from a sample that favours the highest values as a whole.
log10(binding signal) values for the binders below.
result_type: log10(binding signal) (log10 of the value in enrichment R)

INSERT INTO measurements (binder, result_type, obs_value) VALUES
  ('chr5:38481646:38481747:-|CDS|ENSG00000113594|unk|total|mutant (ssRNA) RNA: GGGAGUUCUACAGUCCGACGAUCCAGACCUCAGGCCAAUGUAAAUACAUGGAAUUCCGUGUCUCCAGACUCUCCCCGAUCCACCGACAGCAACAGUGAGAUUGUCUCAUUUGGAAGUCCAUGCUCCAUUAAUUCCCGACAAUUCAACAGAGGAUUGAGCAUCA', 'log10(binding signal)', -0.34),
  ('chr9:137457406:137457901:-|CDS|ENSG00000165802|control|control|control (ssRNA) RNA: GGGAGUUCUACAGUCCGACGAUCCGCCUGUCCCUCGUCUCCAACGGCUGCUACGAGGGCAGCCUCUCAGAGGAGCCCAGCAUUAGGAAGCCCGCAGGCGAGGGCCCUCAGCCUCGAGUGUACACCAUCUCUGGGGAGCCUGCCCAACAGAGGAUUGAGCAUCA', 'log10(binding signal)', -0.40),
  ('chr1:233671823:233671924:+|3pUTR|ENSG00000135750|msi1|total|mutant (ssRNA) RNA: GGGAGUUCUACAGUCCGACGAUCUGCUGCUGUGGUCCGAAGCAGAUUUUAUACUUUUAACUGGAAACUUUGGGGUUUGCAUUCCGAUCAUUCCGCUGAUGGCUAAACCGCAAAAUUUAUAUUCCGAAGCAAAAAAAAAAAGCACAACAGAGGAUUGAGCAUCA', 'log10(binding signal)', -0.53),
  ('chrX:65741840:65741941:+|3pUTR|ENSG00000147065|msi1|total|mutant (ssRNA) RNA: GGGAGUUCUACAGUCCGACGAUCAAAUUGUUUUUGGAGGGGUUUAUGCUCAAUCCAUGUUCUAUUUCAGUGCCAAUAAAAUUCCGGAAGACUUCACAGUGACUCAAUCGUUCUUUGUGGUAUGAGUGGGCCGCUGUAAGAUAUCAACAGAGGAUUGAGCAUCA', 'log10(binding signal)', -0.69),
  ('chr11:113276125:113276317:+|3pUTR|ENSG00000149294|msi1|FALSE|unique (ssRNA) RNA: GGGAGUUCUACAGUCCGACGAUCGUCCGUGUAAAAUAGCUGCCUUUUAUUUUUUAAGGUAACAAAUACCACCUAGAGGUAGGUAGGAUCAUCCCACGCUUGCUUUAGCACAGGACAACUUUACAAAACAUGAUUGUUUACAGCCAACAGAGGAUUGAGCAUCA', 'log10(binding signal)', -0.15),
  ('chr12:54350855:54350965:+|3pUTR|ENSG00000111481|msi1|FALSE|unique (ssRNA) RNA: GGGAGUUCUACAGUCCGACGAUCUUGCCCUGACAUUUUUGUAAAUUCUGUGCCCUUUGCUGUAGCUACACUUCAGAUUAAAGUAGGAGAAAGAAUGUGCUGAGUGUUUUCCUCCCUUUGCCUCUACCUGGCCCUCAUCCCAACCAACAGAGGAUUGAGCAUCA', 'log10(binding signal)', -0.19),
  ('chr11:118657315:118658441:-|three_prime_utr|ENSG00000118094|control|control|control (ssRNA) RNA: GGGAGUUCUACAGUCCGACGAUCCCUCCCAGCCUGUCCUCAGAGCGAAGUGGAGGGCAGGGUCACGACCUGGAGGUCAUGGGUAGGGGCCUAGCUCCCUCCUGGAACCUUGAAUAGGGUGGAAAUCCUGCUCUGGAGGGAAGACAACAGAGGAUUGAGCAUCA', 'log10(binding signal)', -0.49),
  ('ENSG00000151612:stop:overlap|stop_codon|ENSG00000151612|stop_codon|NA|stop_codon (ssRNA) RNA: GGGAGUUCUACAGUCCGACGAUCCAGGCCUGUUGGAGAAGGAAGCCAGCAGUGAGGGGGAUUGCAAAGUAGAGAGAGGUUGGUAGAACUGUGGACUGUGAAGAGAUCGAGAAUAGCACAGUUAACUAGGCAUUUGCCUUCGGCCAACAGAGGAUUGAGCAUCA', 'log10(binding signal)', 0.51),
  ('chr3:121431430:121432303:-|three_prime_utr|ENSG00000051341|control|control|control (ssRNA) RNA: GGGAGUUCUACAGUCCGACGAUCUGGAAAGAACAGAGAUUACCCUUUCACCUACCUCAGCAAAACAAACUUUCAAGUCUUGAUAGACUUAGCCUAGUAAUUUUAUAGUGAGAGUUUCAAACUAUAUAUCAGUGUCUAUAGCAUCAACAGAGGAUUGAGCAUCA', 'log10(binding signal)', 1.24),
  ('chr1:213241217:213241334:+|CDS|ENSG00000136643|unk|total|mutant (ssRNA) RNA: GGGAGUUCUACAGUCCGACGAUCAGUUCUCCAAGAACAUCAGAUUCCCUCAGCCGAUCAAAAAACCGCCCCAUGGAAUUCUUCCGGACCGACAGUAAGGACCGCGCAAGUGAACUCCUGGGACUUGACUUUGGAGAAAAAUUGCAACAGAGGAUUGAGCAUCA', 'log10(binding signal)', -0.27),
  ('chr11:46743636:46743700:-|3pUTR|ENSG00000175216|msi1_unk|total|mutant (ssRNA) RNA: GGGAGUUCUACAGUCCGACGAUCUUGUAAAAUUGUCCUAAUCUUUCCCCGCUUUUUAACCGUUAAUAUCCGAAACUCUUUAACCGUUUUCCUUUCAGUUUGUGAGCUCUUCUCUGUCGCCCUGAAGGGUCACUGUAUUCUGUACAACAGAGGAUUGAGCAUCA', 'log10(binding signal)', -0.06),
  ('chrX:48700291:48700392:+|CDS|ENSG00000101945|unk|FALSE|unique (ssRNA) RNA: GGGAGUUCUACAGUCCGACGAUCGCUCCGUCGCUGGGAGCAGGAGCUCAAUGCCAAGCGCAGCCAUCUGGGACGCAUCACUGUAGAGAAUGAGGUGGACCUGGACGGCCCUCCGCGGGCCUUCGUGUACAUCAAUGAGUACCGCAACAGAGGAUUGAGCAUCA', 'log10(binding signal)', -0.40),
  ('chr2:171983412:171983537:+|3pUTR|ENSG00000128708|unk|FALSE|unique (ssRNA) RNA: GGGAGUUCUACAGUCCGACGAUCUGAUGACUUUAAUUUUAAAAUCUUGUGACAUUUUGCUUAUACUAAAAGUUAUCUAUCUUUAGUUGAAUAUUUUCUUUUGGAGAGAUUGUAUAUUUUAAAAUACUGUUUAGAGUUUAUGAGCAACAGAGGAUUGAGCAUCA', 'log10(binding signal)', 0.52);
